Recorded Percent Cytotoxicity, one value per entry.
Tested on: HeP-2 (larynx)
measurement protocol: MTT cytotoxicity assay, HeP-2 cells
Assay type: cell-based, human
cond: human, 48 hours, 1 μM
Starred links: 1 amine or outer side, 2 acyl side, 3 side chain; linkers in the order of their positions; H or OH if unused. Non-standard residues stand in square brackets, D forms with d. Residues, ends and D or L forms follow the SMILES beside them. X2 = O=C([C@@H]1CC[C@H](CN[*:1])O1)[*:2]; X1 = O=C(C1CCC(CN[*:1])O1)[*:2]
Write the number in % without appending the unit.

Some compounds with recorded Percent Cytotoxicity:
compound | Percent Cytotoxicity (%)
CSCC[C@H](NC(=O)[C@@H](N)CC(C)C)C(=O)N[C@@H](Cc1ccc(O)cc1)C(=O)NC[C@H]1CC[C@@H](C(=O)N[C@@H](Cc2ccc(O)cc2)C(=O)N[C@@H](CC(C)C)C(=O)N[C@@H](CCCCN)C(=O)O)O1 [SEQ ID NO: 13, Leu-Met-Tyr-Saa4-Tyr-Leu-Lys] (H-LMY[X2]YLK-OH) | 16.4
CSCC[C@H](N)C(=O)NCC1CCC(C(=O)N[C@@H](Cc2ccc(O)cc2)C(=O)N[C@@H](CC(C)C)C(=O)O)O1 (stereo partly shown) | 10.9
CSCC[C@H](NC(=O)[C@@H](N)CC(C)C)C(=O)N[C@@H](Cc1ccc(O)cc1)C(=O)NCC1CCC(C(=O)N[C@@H](Cc2ccc(O)cc2)C(=O)N[C@@H](CC(C)C)C(=O)N[C@@H](CCCCN)C(=O)O)O1 (stereo partly drawn) [SEQ ID NO: 12, Leu-Met-Tyr-Saa3-Tyr-Leu-Lys] (H-LMY[X1]YLK-OH) | 28.9

# evaluate next
Task item: Dear colleague, I am looking for the recorded Percent Cytotoxicity of the following compound: CSCC[C@H](N)C(=O)NC[C@H]1CC[C@@H](C(=O)N[C@@H](Cc2ccc(O)cc2)C(=O)N[C@@H](CC(C)C)C(=O)O)O1
Reply: 27.9

* * *

Test system: HeP-2 (larynx)
measurement protocol: MTT cytotoxicity assay, HeP-2 cells
Assay type: cell-based, human
cond: human, 48 hours, 100 nM
Starred links: 1 amine or outer side, 2 acyl side, 3 side chain; linkers in the order of their positions; H or OH if unused. Non-standard residues stand in square brackets, D forms with d. Residues, ends and D or L forms follow the SMILES beside them. 2Furoyl(5-aminomethyl) = O=C(c1ccc(CN[*:1])o1)[*:2]; X1 = O=C(C1CCC(CN[*:1])O1)[*:2]
property: Percent Cytotoxicity (%)
Write the number in % without appending the unit.

Some compounds with recorded Percent Cytotoxicity:
compound | Percent Cytotoxicity, %
CSCC[C@H](N)C(=O)NCc1ccc(C(=O)N[C@@H](Cc2ccc(O)cc2)C(=O)N[C@@H](CC(C)C)C(=O)O)o1 | 6.0
CSCC[C@H](NC(=O)[C@@H](N)CC(C)C)C(=O)N[C@@H](Cc1ccc(O)cc1)C(=O)NCc1ccc(C(=O)N[C@@H](Cc2ccc(O)cc2)C(=O)N[C@@H](CC(C)C)C(=O)N[C@@H](CCCCN)C(=O)O)o1 [SEQ ID NO: 10, Leu-Met-Tyr-Saa1-Tyr-Leu-Lys] (H-LMY[2Furoyl(5-aminomethyl)]YLK-OH) | 31.8
CSCC[C@H](NC(=O)[C@@H](N)CC(C)C)C(=O)N[C@@H](Cc1ccc(O)cc1)C(=O)NCC1CCC(C(=O)N[C@@H](Cc2ccc(O)cc2)C(=O)N[C@@H](CC(C)C)C(=O)N[C@@H](CCCCN)C(=O)O)O1 (stereo partly drawn) [SEQ ID NO: 12, Leu-Met-Tyr-Saa3-Tyr-Leu-Lys] (H-LMY[X1]YLK-OH) | 32.2

Task item: Dear colleague, I am looking for the recorded Percent Cytotoxicity of the following compound: CSCC[C@H](NC(=O)[C@@H](N)CC(C)C)C(=O)N[C@@H](Cc1ccc(O)cc1)C(=O)NC[C@H]1O[C@H](C(=O)N[C@H](C(=O)N[C@@H](Cc2ccc(O)cc2)C(=O)N[C@@H](CC(C)C)C(=O)N[C@@H](CCCCN)C(=O)O)[C@@H](C)O)[C@@H](OCc2ccccc2)[C@@H]1OCc1ccccc1
Reply: 13.9
